# System: Pseudomonas aeruginosa (ATCC27853)
# ASSAY INFO: Microtitre plate assay, IC90 determination
# Type: cell-based
# TEST CONTEXT: 90% inhibitory concentration for bacterial growth, read-out: IC90 PAE 27853
REPORTED PROPERTY: IC90 (µg/mL)
Write the answer as a number in µg/mL, unit excluded.

Q: Return reported IC90. Input compound: CCc1cc2ccc(C(c3ccccc3)C(O)(CCN(C)C)c3cc(F)cc(F)c3)cc2nc1Cl (single isomer, unassigned)
Result: 9.9

Q: Return reported IC90. Input compound: CCc1cc2cc(C(c3ccccc3)C(O)(CCN(C)C)c3cc(F)cc(F)c3)ccc2nc1Cl (single isomer, unassigned)
Result: 12.4

Q: Return reported IC90. Input compound: CCc1cc2cc(C(c3ccccc3)C(O)(CCN(C)C)c3cccc4ccccc34)ccc2nc1Cl (single isomer, unassigned)
Result: 12.8

Q: Return reported IC90. Input compound: CN(C)CC(c1cccc2ccccc12)C(O)C(Cc1ccccc1)c1ccc2cc(Br)ccc2n1 (single isomer, unassigned)
Result: 10.8

Q: Return reported IC90. Input compound: CN(C)CC(c1cccc(F)c1)C(O)C(Cc1ccccc1)c1ccc2cc(Br)ccc2n1 (single isomer, unassigned)
Result: 12.8

----------
I'd be grateful if you could share measured melting point for these entries.
Write the answer as a number in °C, unit excluded.

Q: Return reported melting point. Input compound: CN(C)CC(c1cccc2ccccc12)C(O)C(Cc1ccccc1)c1ccc2cc(Br)ccc2n1 (single isomer, unassigned) [Compound 3]
Result: 69

Q: Return reported melting point. Input compound: CN(C)CC(c1cccc(F)c1)C(O)C(Cc1ccccc1)c1ccc2cc(Br)ccc2n1 (single isomer, unassigned) [Compound 4]
Result: 179

Q: Return reported melting point. Input compound: CN(C)CC(c1cccc2ccccc12)C(O)C(Cc1ccccc1)c1ccc2cc(Br)ccc2n1 (single isomer, unassigned) [Compound 2]
Result: 143

Q: Return reported melting point. Input compound: CN(C)CC(c1cccc(F)c1)C(O)C(Cc1ccccc1)c1ccc2cc(Br)ccc2n1 (single isomer, unassigned) [Compound 1]
Result: 136

----------
# Test system: Listeria monocytogenes (ATCC49594)
# ASSAY INFO: Microtitre plate assay, IC90 determination
# Type: cell-based
# TEST CONTEXT: 90% inhibitory concentration for bacterial growth, read-out: IC90 LMO 49594
Response field label: string, one of class 1 (IC90 strictly below 10 µg/mL) or class 0.

Q: Check if IC90 falls below 10 µg/mL for CCc1cc2cc(C(c3ccccc3)C(O)(CCN(C)C)c3cc(F)cc(F)c3)ccc2nc1Cl (single isomer, unassigned) [Compound 11] .
Result: class 1

Q: Check if IC90 falls below 10 µg/mL for CCc1cc2cc(C(c3ccccc3)C(O)(CCN(C)C)c3cccc4ccccc34)ccc2nc1Cl (single isomer, unassigned) [Compound 6] .
Result: class 0

Q: Check if IC90 falls below 10 µg/mL for CN(C)CC(c1cccc2ccccc12)C(O)C(Cc1ccccc1)c1ccc2cc(Br)ccc2n1 (single isomer, unassigned) [Compound 2] .
Result: class 0

Q: Check if IC90 falls below 10 µg/mL for CCc1cc2ccc(C(c3ccccc3)C(O)(CCN(C)C)c3cc(F)cc(F)c3)cc2nc1Cl (single isomer, unassigned) [Compound 10] .
Result: class 0

----------
# Tested on: Streptococcus pyogens (ATCC8668)
# ASSAY INFO: Microtitre plate assay, IC90 determination
# Type: cell-based
# TEST CONTEXT: Streptococcus, ATCC8668, 90% inhibitory concentration for bacterial growth, read-out: IC90 SPY 8668
# Protocol: The bacteria used in this study were grown overnight in flasks containing 100 ml Mueller-Hinton Broth (Becton Dickinson—cat. no. 275730) in sterile de-ionized water, with shaking, at 37° C. Stocks (0.5 ml/tube) were stored at −70° C. until use. Bacteria titrations were performed in microtiter plates and colony forming units (CFUs) were determined. In general, an inoculum level of approximately 100 CFUs was used for susceptibility testing. Anti Bacterial Susceptibility Testing: IC90 Determination […]
I'd be grateful if you could share measured IC90 for these entries.
Write the answer as a number in µg/mL, unit excluded.

Q: Return reported IC90. Input compound: CCc1cc2ccc(C(c3ccccc3)C(O)(CCN(C)C)c3cc(F)cc(F)c3)cc2nc1Cl (single isomer, unassigned)
Result: 12.4

Q: Return reported IC90. Input compound: CN(C)CC(c1cccc2ccccc12)C(O)C(Cc1ccccc1)c1ccc2cc(Br)ccc2n1 (single isomer, unassigned)
Result: 10.8

Q: Return reported IC90. Input compound: CN(C)CC(c1cccc(F)c1)C(O)C(Cc1ccccc1)c1ccc2cc(Br)ccc2n1 (single isomer, unassigned)
Result: 10.1

Q: Return reported IC90. Input compound: CCc1cc2cc(C(c3ccccc3)C(O)(CCN(C)C)c3cccc4ccccc34)ccc2nc1Cl (single isomer, unassigned)
Result: 12.8

Q: Return reported IC90. Input compound: CCc1cc2cc(C(c3ccccc3)C(O)(CCN(C)C)c3cc(F)cc(F)c3)ccc2nc1Cl (single isomer, unassigned)
Result: 12.4
